Data origin: patent US11666558B2

test: Ocular tissue concentrations (aqueous humor, vitreous humor, iris, retina, choroid, cornea) after topical ocular, subcutaneous and intravitreal administration; assay type: in vivo, New Zealand White rabbits; settings: New Zealand White, rabbit, retina homogenate, other: intravitreal, 2.5 mg/eye, Retina homogenate, 24 hr, right eye, intravitreal 2.5 mg/eye (group 5), individual animals; read-out: Conc. (ng/mL) OD
MEASURED ATTRIBUTE: concentration at 24 h (ng/mL)
Just the number please, in ng/mL, no unit attached.

Inquiry: Requested read-out: concentration at 24 h. Entry: COC(=O)N[C@@H](Cc1ccccc1)C(=O)N[C@@H](Cc1ccc(NS(=O)(=O)O)cc1)c1csc(-c2cccs2)n1
Reply text: 130000

----------
assay: Ocular tissue concentrations (aqueous humor, vitreous humor, iris, retina, choroid, cornea) after topical ocular, subcutaneous and intravitreal administration; format: in vivo, New Zealand White rabbits; conditions: New Zealand White, rabbit, aqueous humor, topical, 1.2 mg/eye, Group 1 topical ocular 1.2 mg/eye; 4.0 hr; read-out: aqueous humor Average Conc.
Structures can show the parent of a compound that is named as a salt.
MEASURED ATTRIBUTE: concentration at 4 h (ng/g)
Just the number please, in ng/g, no unit attached.

Inquiry: Requested read-out: concentration at 4 h. Entry: COC(=O)N[C@@H](Cc1ccccc1)C(=O)N[C@@H](Cc1ccc(NS(=O)(=O)O)cc1)c1csc(-c2cccs2)n1 [Compound 1 sodium salt]
Reply text: 8.24

----------
experiment: Ocular tissue concentrations (aqueous humor, vitreous humor, iris, retina, choroid, cornea) after topical ocular, subcutaneous and intravitreal administration; assay type: in vivo, New Zealand White rabbits; details: New Zealand White, rabbit, cornea homogenate, subcutaneous, 5 mg/kg/dose, Cornea homogenate, 2 hr, OD; free acid, subcutaneous 5 mg/kg/dose, Group 3; read-out: Cornea Conc. (ng/mL) OD
MEASURED ATTRIBUTE: concentration at 2 h (ng/mL)
Just the number please, in ng/mL, no unit attached.

Inquiry: Requested read-out: concentration at 2 h. Entry: COC(=O)N[C@@H](Cc1ccccc1)C(=O)N[C@@H](Cc1ccc(NS(=O)(=O)O)cc1)c1csc(-c2cccs2)n1
Reply text: 0.514

----------
experiment: Ocular tissue concentrations (aqueous humor, vitreous humor, iris, retina, choroid, cornea) after topical ocular, subcutaneous and intravitreal administration; format: in vivo, New Zealand White rabbits; conditions: New Zealand White, rabbit, aqueous humor, topical, 1.2 mg/eye, Group 1 topical ocular 1.2 mg/eye; 1.0 hr; read-out: aqueous humor Average Conc.
Structures can show the parent of a compound that is named as a salt.
MEASURED ATTRIBUTE: concentration at 1 hr (ng/g)
Just the number please, in ng/g, no unit attached.

Inquiry: Requested read-out: concentration at 1 hr. Entry: COC(=O)N[C@@H](Cc1ccccc1)C(=O)N[C@@H](Cc1ccc(NS(=O)(=O)O)cc1)c1csc(-c2cccs2)n1 [Compound 1 sodium salt]
Reply text: 15

----------
test: Ocular tissue concentrations (aqueous humor, vitreous humor, iris, retina, choroid, cornea) after topical ocular, subcutaneous and intravitreal administration; format: in vivo, New Zealand White rabbits; conditions: New Zealand White, rabbit, cornea, subcutaneous, 5 mg/kg/dose, TABLE 16: Cornea, 1 hr, OD; free acid, subcutaneous 5 mg/kg/dose, Group 3; read-out: Cornea Conc. (ng/g) OD
MEASURED ATTRIBUTE: concentration at 1 h (ng/g)
Just the number please, in ng/g, no unit attached.

Inquiry: Requested read-out: concentration at 1 h. Entry: COC(=O)N[C@@H](Cc1ccccc1)C(=O)N[C@@H](Cc1ccc(NS(=O)(=O)O)cc1)c1csc(-c2cccs2)n1 [Compound 1]
Reply text: 12.2
